biological target: T1, VLP2 (virus-like particles of AAV2) (AAV2, UniProt P03135 1-735; P03135 1-598; P03135 1-533); assay: ELISA on VLP2; A450 after 66.1°C 15 min / untreated
T1 construct: Empty AAV2 capsid; background says about 60 protein molecules, VP1:VP2:VP3 = 1:1:10; Immobilised on the ELISA plate
T1 sequence (P03135 whole entry, chain 1 of 3): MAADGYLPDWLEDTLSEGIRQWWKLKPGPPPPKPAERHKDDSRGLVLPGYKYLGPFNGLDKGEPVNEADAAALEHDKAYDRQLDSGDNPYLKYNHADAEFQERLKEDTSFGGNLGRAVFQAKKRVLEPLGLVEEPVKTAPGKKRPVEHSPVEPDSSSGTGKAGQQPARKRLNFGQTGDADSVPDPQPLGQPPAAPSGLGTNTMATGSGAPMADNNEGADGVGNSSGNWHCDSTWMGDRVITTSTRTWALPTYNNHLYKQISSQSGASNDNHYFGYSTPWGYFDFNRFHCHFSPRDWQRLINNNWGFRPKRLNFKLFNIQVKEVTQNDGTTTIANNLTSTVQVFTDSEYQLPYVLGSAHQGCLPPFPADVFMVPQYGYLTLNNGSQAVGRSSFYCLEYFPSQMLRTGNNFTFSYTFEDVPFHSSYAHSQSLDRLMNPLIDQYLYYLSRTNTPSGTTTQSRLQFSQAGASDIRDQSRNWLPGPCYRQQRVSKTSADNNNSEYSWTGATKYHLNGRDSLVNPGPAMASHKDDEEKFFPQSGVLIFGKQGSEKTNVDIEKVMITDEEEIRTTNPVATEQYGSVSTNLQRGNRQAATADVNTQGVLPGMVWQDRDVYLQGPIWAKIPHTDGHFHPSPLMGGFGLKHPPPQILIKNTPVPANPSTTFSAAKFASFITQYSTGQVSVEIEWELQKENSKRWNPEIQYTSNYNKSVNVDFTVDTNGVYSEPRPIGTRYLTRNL
T1 sequence (P03135 139-735, tags left off, chain 2 of 3): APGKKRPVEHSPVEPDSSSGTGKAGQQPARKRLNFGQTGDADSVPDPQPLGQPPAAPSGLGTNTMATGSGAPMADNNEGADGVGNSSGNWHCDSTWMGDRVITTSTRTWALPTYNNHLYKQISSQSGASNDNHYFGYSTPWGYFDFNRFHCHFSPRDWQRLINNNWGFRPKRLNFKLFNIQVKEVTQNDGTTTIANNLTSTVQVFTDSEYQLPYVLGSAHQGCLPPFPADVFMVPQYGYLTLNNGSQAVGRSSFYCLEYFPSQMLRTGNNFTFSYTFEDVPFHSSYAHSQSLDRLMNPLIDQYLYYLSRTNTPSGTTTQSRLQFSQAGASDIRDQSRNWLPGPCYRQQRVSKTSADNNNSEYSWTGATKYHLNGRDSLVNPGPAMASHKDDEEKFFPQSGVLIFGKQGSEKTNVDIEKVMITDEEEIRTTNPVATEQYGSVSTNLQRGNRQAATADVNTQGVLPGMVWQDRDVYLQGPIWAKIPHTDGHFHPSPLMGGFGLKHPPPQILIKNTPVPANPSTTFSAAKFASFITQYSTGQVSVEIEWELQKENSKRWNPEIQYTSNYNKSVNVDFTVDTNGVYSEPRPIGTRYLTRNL
T1 sequence (P03135 203-735, chain 3 of 3): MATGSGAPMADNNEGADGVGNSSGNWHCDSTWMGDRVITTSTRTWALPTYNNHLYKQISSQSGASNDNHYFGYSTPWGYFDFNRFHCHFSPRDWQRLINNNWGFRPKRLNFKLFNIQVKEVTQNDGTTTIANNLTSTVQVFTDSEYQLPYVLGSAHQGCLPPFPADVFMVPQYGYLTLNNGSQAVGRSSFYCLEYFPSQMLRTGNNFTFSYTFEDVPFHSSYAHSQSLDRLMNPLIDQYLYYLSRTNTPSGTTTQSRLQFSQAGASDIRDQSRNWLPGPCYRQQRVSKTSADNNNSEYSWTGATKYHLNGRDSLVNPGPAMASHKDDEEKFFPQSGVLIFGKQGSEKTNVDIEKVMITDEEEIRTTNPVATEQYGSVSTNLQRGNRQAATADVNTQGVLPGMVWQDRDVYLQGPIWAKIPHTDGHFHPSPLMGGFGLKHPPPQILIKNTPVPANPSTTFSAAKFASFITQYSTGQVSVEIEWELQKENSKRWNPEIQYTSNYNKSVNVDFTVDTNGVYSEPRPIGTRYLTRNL
Assay Endpoint: Residual activity [%] (%)
Write it as a number; the unit % goes unstated.

**Q:** Entry AAV-binding protein No. 43 (Leu321Pro, Tyr342Asn, Ala461Ser) (receptor) MGSAGESVQITPPKNEVQLNAYVLQEPPKGETNTYDWQLITHPRDYSGEMEGKHSQILKLSKLTPGLYEFKVIVEGQNAHGEGYVNVTVKPEPRKNRPPIAIVSPQFQEISLPTTSTVIDGSQSTDDDKIVQYHWEELKGPLREEKISEDTSILKLSKLVPGNYTFSLTVVDSDGATNSTTANLTVNKAVDHHHHHH : reported Residual activity [%] = ?
**A:** 56.3
